// data source = PubChem BioAssay (EPA / NIEHS)

Read-out: Cytochrome P450 2C19 (Homo sapiens)
Test: LTEA_HepaRG_CYP2C19: Life Technologies and Expression Analysis (LTEA) Assay for CYP2C19 using HepaRG (AID 2283482)
Settings: mRNA level, 48 h; actives raise or lower the signal
Active and inactive are the calls of the source. Rule for the calls: active = hit-call score of the fitted dose curve at least 0.9, where 1 is the maximum; inactive = score below 0.9.
// classify into active, inactive

I'd appreciate the recorded outcome for CC(O)CC(C)(C)O (centres undefined) from this test.
inactive

I'd appreciate the recorded outcome for Clc1ccccc1C(c1ccccc1)(c1ccccc1)n1ccnc1 from this test.
active

I'd appreciate the recorded outcome for O=c1[nH]sc2ccccc12 from this test.
inactive

I'd appreciate the recorded outcome for COc1ccc2cc(S(=O)(=O)N[C@H](CC(=O)N[C@H](Cc3ccc(CN4[C@H](C)CCC[C@@H]4C)cc3)C(=O)N(C)C(C)C)c3ccc4c(c3)OCO4)ccc2c1 from this test.
active

I'd appreciate the recorded outcome for Cc1cccc2ccccc12 from this test.
inactive

I'd appreciate the recorded outcome for CN1C(=O)N(c2ccccc2Br)Cc2cnc(Nc3ccc4c(c3)OCC(CO)O4)nc21 (centres undefined) from this test.
active

I'd appreciate the recorded outcome for O=C(Nc1ccc(Cl)cc1)Nc1ccc(Cl)c(Cl)c1 from this test.
active

I'd appreciate the recorded outcome for CCCCOC(=O)c1ccc(O)cc1 from this test.
inactive

I'd appreciate the recorded outcome for COCC(C)OCC(C)OCC(C)O (centres undefined) from this test.
inactive

I'd appreciate the recorded outcome for Oc1ccc2ccccc2c1 from this test.
inactive

I'd appreciate the recorded outcome for CN(C[C@@H](CC[N+]12CCC(C3CCCCC3)(CC1)CC2)c1ccc(Cl)c(Cl)c1)C(=O)c1cc(C(F)(F)F)cc(C(F)(F)F)c1 from this test.
active

I'd appreciate the recorded outcome for CC[C@@H]1C[C@H](N(Cc2cc(C(F)(F)F)cc(C(F)(F)F)c2)C(C)=O)c2cc(C(F)(F)F)ccc2N1C(=O)OC(C)C from this test.
active

I'd appreciate the recorded outcome for O=c1c(-c2ccc(O)cc2)coc2cc(O)cc(O)c12 from this test.
inactive

I'd appreciate the recorded outcome for CN(C)c1ccc(C(=C2C=CC(=[N+](C)C)C=C2)c2ccc(N(C)C)cc2)cc1 from this test.
active

I'd appreciate the recorded outcome for CC1=CC(=O)/C(=C(/C)O)C(=O)O1 from this test.
inactive

I'd appreciate the recorded outcome for CCCCCCCCN(C)CCCCCCCC from this test.
inactive

I'd appreciate the recorded outcome for COc1cc(C(=O)NC2CCN(C)CC2)ccc1Nc1ncc2c(n1)N(C1CCCC1)CC(F)(F)C(=O)N2C from this test.
active

I'd appreciate the recorded outcome for CCN(Cc1cccnc1)C(=O)c1cccc(Cl)c1[C@]1(C)C(=O)N(Cc2ccc(OC)cc2OC)c2ccc(Cl)cc21 from this test.
active

I'd appreciate the recorded outcome for Cc1cc2c(cc1C(F)(F)F)N(C(=O)Nc1ccc(Oc3cccnc3C)nc1)CC2 from this test.
inactive

I'd appreciate the recorded outcome for CCCCCCCC[Si](OCC)(OCC)OCC from this test.
inactive

I'd appreciate the recorded outcome for CN(C)C(=O)C1(N2CCCCC2)CCN(CC[C@@]2(c3ccc(Cl)c(Cl)c3)CN(C(=O)c3ccccc3)CCO2)CC1 from this test.
active

I'd appreciate the recorded outcome for CCCCCCCCCC(=O)O from this test.
inactive

I'd appreciate the recorded outcome for CC(C)(O)c1ccc(CNC(=O)c2cccnc2Oc2ccc3nonc3c2)cc1 from this test.
active

I'd appreciate the recorded outcome for CCCCOC(=O)CC(CC(=O)OCCCC)(OC(C)=O)C(=O)OCCCC from this test.
inactive

====

Read-out: Monocyte Chemoattractant Protein-1 (MCP1), CCL2 (gene 6347)
Test: BSK_SAg_MCP1: BioMAP Diversity Plus: SAg Assay for Monocyte Chemoattractant Protein-1 (MCP1) Biomarker Activity (AID 2283090)
Conditions: primary human HUVEC with PBMC; actives raise or lower the signal
Active and inactive are the calls of the source. Rule for the calls: active = hit-call score of the fitted dose curve at least 0.9, where 1 is the maximum; inactive = score below 0.9.
// classify into Yes (active), No (inactive)

I'd appreciate the recorded outcome for O=CCCCC=O from this test.
No

I'd appreciate the recorded outcome for CCCCCCCCCCCCO from this test.
Yes

I'd appreciate the recorded outcome for Cc1ccc2oc(CN(Cc3ccccc3)C(=O)Nc3c(F)cc(F)cc3F)c(-c3ccc(Cl)cc3)c2c1 from this test.
No

I'd appreciate the recorded outcome for CN(C)C(=O)C1(N2CCCCC2)CCN(CC[C@@]2(c3ccc(Cl)c(Cl)c3)CN(C(=O)c3ccccc3)CCO2)CC1 from this test.
Yes

I'd appreciate the recorded outcome for CCCCCCCCCCCC[N+](C)(C)C from this test.
Yes

I'd appreciate the recorded outcome for CC1=CC(=O)/C(=C(/C)O)C(=O)O1 from this test.
No

I'd appreciate the recorded outcome for Cc1oc2c(NC(=O)c3c(Cl)cccc3Cl)cccc2c1C(C)(C)O from this test.
Yes

I'd appreciate the recorded outcome for O=C1CCC(C2CCCCC2)CC1 from this test.
No

I'd appreciate the recorded outcome for COc1ccc2cc(S(=O)(=O)N[C@H](CC(=O)N[C@H](Cc3ccc(CN4[C@H](C)CCC[C@@H]4C)cc3)C(=O)N(C)C(C)C)c3ccc4c(c3)OCO4)ccc2c1 from this test.
Yes

I'd appreciate the recorded outcome for COc1cccc([C@H](O)C2CCN(CCc3ccc(F)cc3)CC2)c1OC from this test.
No

I'd appreciate the recorded outcome for c1ccc(C[n+]2cccc3ccccc32)cc1 from this test.
No

I'd appreciate the recorded outcome for CCCOC(=O)c1cc(O)c(O)c(O)c1 from this test.
Yes

I'd appreciate the recorded outcome for CCCC(=O)OCCC(C)C from this test.
No

====

Assay: TOX21_p53_BLA_p5_viability: Viability Assessment in the Tox21 HCT-116 p53 Agonism Beta-lactamase Assay, Phase 5 (AID 2283600)
Records with an inconclusive call do not appear. Active and inactive are the calls of the source. How the source made its calls: active means hit-call score of the fitted dose curve at least 0.9, where 1 is the maximum; inconclusive means response in the unintended direction; inactive means score below 0.9.
Value Kind: AC50

Some molecules with recorded AC50:
| Chemical String | Result |
| --- | --- |
| O=C1c2ccccc2C(=O)N1CCc1noc(-c2ccc(CN3CCCCCC3)s2)n1 | inactive |
| c1ccc2n[nH]nc2c1 | inactive |
| Cc1oc2c(NC(=O)c3c(Cl)cccc3Cl)cccc2c1C(C)(C)O | inactive |
| CCCCCCCCOc1ccc(C(=O)c2ccccc2)c(O)c1 | inactive |
| Oc1ccc2ccccc2c1 | inactive |
| OCCO | inactive |

Return the recorded AC50 value; entry: CCCCCCCCCC(=O)O
inactive

Return the recorded AC50 value; entry: Cc1cc2c(cc1C(F)(F)F)N(C(=O)Nc1ccc(Oc3cccnc3C)nc1)CC2
inactive

Return the recorded AC50 value; entry: O=c1[nH]sc2ccccc12
inactive

Return the recorded AC50 value; entry: CC(C)(C)c1cc(/C=C2\SC(N)=NC2=O)cc(C(C)(C)C)c1O
76.4 µM (active)

Return the recorded AC50 value; entry: COc1cc(C(=O)NC2CCN(C)CC2)ccc1Nc1ncc2c(n1)N(C1CCCC1)CC(F)(F)C(=O)N2C
68.8 µM (active)

Return the recorded AC50 value; entry: O=C=NCCCCCCN=C=O
inactive

Return the recorded AC50 value; entry: Cc1ccc(C(C)C)cc1
inactive

Return the recorded AC50 value; entry: CCCCOC(=O)c1ccc(O)cc1
inactive

Return the recorded AC50 value; entry: CCN(Cc1cccc(S(=O)(=O)O)c1)c1ccc(C(=C2C=CC(=[N+](CC)Cc3cccc(S(=O)(=O)O)c3)C=C2)c2ccccc2S(=O)(=O)[O-])cc1
inactive

Return the recorded AC50 value; entry: CC[C@@H]1C[C@H](N(Cc2cc(C(F)(F)F)cc(C(F)(F)F)c2)C(C)=O)c2cc(C(F)(F)F)ccc2N1C(=O)OC(C)C
inactive

Return the recorded AC50 value; entry: Cc1ncc(CO)c(CO)c1O
inactive

====

Experiment: APR_HepG2_MicrotubuleCSK_24hr: Apredica 24-hour HepG2 Assay for Microtubule CSK Stabilty (AID 2282909)
Details: HepG2 microtubule cytoskeleton imaging, actives raise or lower the signal
Activity calls are given as the source filed them. Rule for the calls: active = hit-call score of the fitted dose curve at least 0.9, where 1 is the maximum; inactive = score below 0.9.
// classify into active, inactive

I'd appreciate the recorded outcome for NCc1cccc(C2CCN(C(=O)c3ccc(C#Cc4ccccc4F)o3)CC2)c1 from this test.
active

I'd appreciate the recorded outcome for O=C(O)c1ccccc1-n1cc(C(=O)O)c(=O)c2cc(Nc3c(F)cc(F)cc3Cl)c(Cl)cc21 from this test.
inactive

I'd appreciate the recorded outcome for O=C(O)Cc1cc(I)c(Oc2ccc(O)c(I)c2)c(I)c1 from this test.
inactive

I'd appreciate the recorded outcome for Cc1occc1C(=O)Nc1ccc(C(=O)N2CCC(F)(F)/C(=C\C(=O)N3CCC(N4CCCCC4)CC3)c3ccccc32)cc1 from this test.
inactive

====

Read-out: CYP3A5 (gene 1577)
Experiment: LTEA_HepaRG_CYP3A5: Life Technologies and Expression Analysis (LTEA) Assay for CYP3A5 using HepaRG (AID 2283493)
Details: mRNA level, 48 h; actives raise or lower the signal
The source made the active and inactive calls. How the source made its calls: active means hit-call score of the fitted dose curve at least 0.9, where 1 is the maximum; inactive means score below 0.9.
// classify into y = active, n = inactive

I'd appreciate the recorded outcome for CC1(C)NC(=O)N(c2ccc([N+](=O)[O-])c(C(F)(F)F)c2)C1=O from this test.
y

I'd appreciate the recorded outcome for Clc1ccccc1C(c1ccccc1)(c1ccccc1)n1ccnc1 from this test.
n

I'd appreciate the recorded outcome for Cc1ccc2oc(CN(Cc3ccccc3)C(=O)Nc3c(F)cc(F)cc3F)c(-c3ccc(Cl)cc3)c2c1 from this test.
n

I'd appreciate the recorded outcome for CCCCCCCCCC(=O)O from this test.
n

I'd appreciate the recorded outcome for CCCCCCCCOc1ccc(C(=O)c2ccccc2)c(O)c1 from this test.
n

I'd appreciate the recorded outcome for C[C@]12CC[C@@H]3c4ccc(O)cc4CC[C@H]3[C@@H]1CC[C@H]2O from this test.
n

I'd appreciate the recorded outcome for O=CCCCC=O from this test.
n

I'd appreciate the recorded outcome for NCc1cccc(C2CCN(C(=O)c3ccc(C#Cc4ccccc4F)o3)CC2)c1 from this test.
y

I'd appreciate the recorded outcome for O=C1c2ccccc2C(=O)N1CCc1noc(-c2ccc(CN3CCCCCC3)s2)n1 from this test.
n

I'd appreciate the recorded outcome for Cc1cc2c(cc1C(F)(F)F)N(C(=O)Nc1ccc(Oc3cccnc3C)nc1)CC2 from this test.
y

I'd appreciate the recorded outcome for CC(=O)N1CCN(c2ccc(OC[C@H]3CO[C@](Cn4ccnc4)(c4ccc(Cl)cc4Cl)O3)cc2)CC1 from this test.
y

I'd appreciate the recorded outcome for CCCCCCCCN(C)CCCCCCCC from this test.
n

I'd appreciate the recorded outcome for COc1cccc([C@H](O)C2CCN(CCc3ccc(F)cc3)CC2)c1OC from this test.
n

I'd appreciate the recorded outcome for O=C(O)c1ccccc1C(=O)OCc1ccccc1 from this test.
n

I'd appreciate the recorded outcome for c1ccc(C[n+]2cccc3ccccc32)cc1 from this test.
n

I'd appreciate the recorded outcome for CN1C(=O)CC[C@H]1c1cccnc1 from this test.
n

I'd appreciate the recorded outcome for Clc1cc(Cl)c2c(c1)N=C1CCCCCN1C2 from this test.
n

I'd appreciate the recorded outcome for CCO[Si](CCCNC(N)=O)(OCC)OCC from this test.
n

I'd appreciate the recorded outcome for O=C1CCC(C2CCCCC2)CC1 from this test.
n

I'd appreciate the recorded outcome for CC(C)(c1cc(Br)c(O)c(Br)c1)c1cc(Br)c(O)c(Br)c1 from this test.
n

I'd appreciate the recorded outcome for Cc1ccc(C(C)C)cc1 from this test.
n

I'd appreciate the recorded outcome for CCCOC(=O)c1cc(O)c(O)c(O)c1 from this test.
n

I'd appreciate the recorded outcome for CC[C@@H]1C[C@H](N(Cc2cc(C(F)(F)F)cc(C(F)(F)F)c2)C(C)=O)c2cc(C(F)(F)F)ccc2N1C(=O)OC(C)C from this test.
n

I'd appreciate the recorded outcome for CCCCCCCCCCCO from this test.
n

I'd appreciate the recorded outcome for Oc1ccc2ccccc2c1 from this test.
n

I'd appreciate the recorded outcome for Cc1cn([C@H]2C[C@H](N=[N+]=[N-])[C@@H](CO)O2)c(=O)[nH]c1=O from this test.
n

I'd appreciate the recorded outcome for OCCO from this test.
n

I'd appreciate the recorded outcome for CN(C)C(=O)C1(N2CCCCC2)CCN(CC[C@@]2(c3ccc(Cl)c(Cl)c3)CN(C(=O)c3ccccc3)CCO2)CC1 from this test.
n

I'd appreciate the recorded outcome for CN(C[C@@H](CC[N+]12CCC(C3CCCCC3)(CC1)CC2)c1ccc(Cl)c(Cl)c1)C(=O)c1cc(C(F)(F)F)cc(C(F)(F)F)c1 from this test.
y

I'd appreciate the recorded outcome for O=C(O)Cn1c(=O)n(Cc2ccc(Br)cc2F)c(=O)c2ccc(Cl)cc21 from this test.
n
